B1: glmS ribozyme (parent)
chain: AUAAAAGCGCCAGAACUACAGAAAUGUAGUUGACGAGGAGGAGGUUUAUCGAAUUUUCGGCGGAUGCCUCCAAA

- Variants of: B1
- Procedure details: self-cleavage kobs at 2500 uM GlcN6P; higher = faster cleavage; RNA array
- Test parameters: with glucosamine-6-phosphate
Fewer inactive variants are shown than the library holds.
Give self-cleavage kobs at 2500 uM GlcN6P for every item shown.

Incoming: // lookup self-cleavage kobs at 2500 uM GlcN6P for G13U U30A
Outgoing: 3.78e-05 s⁻¹

Incoming: // lookup self-cleavage kobs at 2500 uM GlcN6P for A33U G43U U54A G60A
Outgoing: < 1e-05 s⁻¹

Incoming: // lookup self-cleavage kobs at 2500 uM GlcN6P for A14U G32U A53G
Outgoing: 0.000242 s⁻¹

Incoming: // lookup self-cleavage kobs at 2500 uM GlcN6P for G35A C70U
Outgoing: < 1e-05 s⁻¹

Incoming: // lookup self-cleavage kobs at 2500 uM GlcN6P for C8G C70A
Outgoing: < 1e-05 s⁻¹

Incoming: // lookup self-cleavage kobs at 2500 uM GlcN6P for A6G U31G G35A U65C
Outgoing: < 1e-05 s⁻¹

Incoming: // lookup self-cleavage kobs at 2500 uM GlcN6P for G60U U69A
Outgoing: < 1e-05 s⁻¹

Incoming: // lookup self-cleavage kobs at 2500 uM GlcN6P for C34U G35C C50U C67A
Outgoing: < 1e-05 s⁻¹

Incoming: // lookup self-cleavage kobs at 2500 uM GlcN6P for G21U U57C
Outgoing: 9.36e-05 s⁻¹

Incoming: // lookup self-cleavage kobs at 2500 uM GlcN6P for G35U G60A C70G
Outgoing: < 1e-05 s⁻¹

Incoming: // lookup self-cleavage kobs at 2500 uM GlcN6P for A12G G40U G62C
Outgoing: < 1e-05 s⁻¹
